Assay: Crossover study of relative bioavailability of tablet versus capsule (005 Study): plasma PK
Type: in vivo, human
Conditions: human, plasma, po, 2.5 mg, single oral 2.5 mg Tablet, healthy adults; read-out: tmax (median)
parameter-measured: Tmax (h)

> print(dat)
                                chem.smiles  parameter.measured  reading
1  Cc1ncc(OC[C@@]2(c3cccc(F)c3)C[C@H]2C(=O)Nc2ccc(F)cn2)c(C)n1                Tmax        1

* * *

Assay: Crossover study of relative bioavailability of tablet versus capsule (005 Study): plasma PK
Type: in vivo, human
Settings: human, plasma, po, 10 mg, single oral 10 mg Capsule, healthy adults; read-out: t1/2 Mean(SD) (converted)
parameter-measured: half-life (h)

> print(dat)
                                chem.smiles  unit.abbrev  reading
1  Cc1ncc(OC[C@@]2(c3cccc(F)c3)C[C@H]2C(=O)Nc2ccc(F)cn2)c(C)n1            h       57

* * *

Test: Single daily dose PK in human subjects (summary statements)
Assay type: in vivo
Conditions: plasma, oral, 5 mg, single 5 mg daily dose, read-out: mean AUC(0-t)
parameter-measured: AUC(0-t)

> print(dat)
                                chem.smiles       reading
1  Cc1ncc(OC[C@@]2(c3cccc(F)c3)C[C@H]2C(=O)Nc2ccc(F)cn2)c(C)n1  ~128 ng·h/mL

* * *

Experiment: Crossover study of relative bioavailability of tablet versus capsule (005 Study): plasma PK
Assay type: in vivo, human
Details: human, plasma, po, 2.5 mg, single oral 2.5 mg Tablet, healthy adults; read-out: AUC(0-inf) Mean(SD)
parameter-measured: AUC(0-inf) (ng·h/mL)

> print(dat)
                                   compound  unit.abbrev  reading
1  Cc1ncc(OC[C@@]2(c3cccc(F)c3)C[C@H]2C(=O)Nc2ccc(F)cn2)c(C)n1 [Compound A]      ng·h/mL      101

* * *

Test: Single dose study (001 Study) Part A: plasma PK of compound A
Assay type: in vivo
Conditions: human, plasma, po, 200 mg, single oral 200 mg, healthy subjects (Part A); read-out: AUC(0-inf) Mean(SD)
Protocol: This was a randomized, double-blind, placebo- and active-controlled, sequential, single-dose study. The study consisted of two parts, Part A (healthy subjects) and Part B (otherwise healthy subjects with primary insomnia). […] Plasma concentrations of compound A were measured using a validated liquid chromatography-mass spectrometry/mass spectrometry (LC-MS/MS) assay.
parameter-measured: AUC(0-inf) (ng·h/mL)

> print(dat)
                                chem.smiles  reading
1  Cc1ncc(OC[C@@]2(c3cccc(F)c3)C[C@H]2C(=O)Nc2ccc(F)cn2)c(C)n1    10500

* * *

Assay: Crossover study of relative bioavailability of tablet versus capsule (005 Study): plasma PK
Assay type: in vivo, human
Details: human, plasma, po, 2.5 mg, single oral 2.5 mg Tablet, healthy adults; read-out: AUC(0-72) Mean(SD)
parameter-measured: AUC(0-t) (ng·h/mL)

> print(dat)
                                   compound  parameter.measured  reading
1  Cc1ncc(OC[C@@]2(c3cccc(F)c3)C[C@H]2C(=O)Nc2ccc(F)cn2)c(C)n1 [Compound A]            AUC(0-t)     84.3

* * *

Experiment: Single dose study (001 Study) Part A: plasma PK of compound A
Assay type: in vivo
Settings: human, plasma, po, 1 mg, single oral 1 mg, healthy subjects (Part A); read-out: t1/2 Median (converted)
parameter-measured: half-life

> print(dat)
                                chem.smiles  parameter.measured  reading
1  Cc1ncc(OC[C@@]2(c3cccc(F)c3)C[C@H]2C(=O)Nc2ccc(F)cn2)c(C)n1           half-life  ~12.7 h

* * *

Experiment: Multiple ascending dose study (002 Study): plasma PK
Type: in vivo, human
Details: human, plasma, oral, 10 mg, Day 14, 10 mg once daily for 14 days; read-out: t1/2 Mean(SD) (converted)
parameter-measured: half-life

> print(dat)
                                chem.smiles  reading
1  Cc1ncc(OC[C@@]2(c3cccc(F)c3)C[C@H]2C(=O)Nc2ccc(F)cn2)c(C)n1    ~55 h

* * *

Assay: Multiple ascending dose study (002 Study): plasma PK
Type: in vivo, human
Settings: human, oral; plasma at 8 h, Day 1, 25 mg; read-out: C8 Mean(SD)
Experimental: A total of 48 healthy adult subjects (18 to 55 years) were to be enrolled into 1 of 6 cohorts sequentially in a gradual dose escalation manner, and randomized to receive either compound A or compound A-matched placebo in the evening 30 minutes before habitual bedtime, and after 3 hours fasting, for 14 days. Each cohort was to comprise 6 compound A-treated subjects and 2 placebo-treated subjects. […]
parameter-measured: concentration at 8 h (ng/mL)

> print(dat)
                                   compound  unit.abbrev  reading
1  Cc1ncc(OC[C@@]2(c3cccc(F)c3)C[C@H]2C(=O)Nc2ccc(F)cn2)c(C)n1 [Compound A]        ng/mL     24.1

* * *

Test: Multiple ascending dose study (002 Study): plasma PK
Format: in vivo, human
Settings: human, oral; plasma at 8 h, Day 1, 2.5 mg; read-out: C8 Mean(SD)
parameter-measured: concentration at 8 h (ng/mL)

> print(dat)
                                chem.smiles  reading
1  Cc1ncc(OC[C@@]2(c3cccc(F)c3)C[C@H]2C(=O)Nc2ccc(F)cn2)c(C)n1     2.33

* * *

Assay: Multiple ascending dose study (002 Study): plasma PK
Assay type: in vivo, human
Conditions: human, plasma, oral, 10 mg, doses of 10 mg and higher, following Day 14 dosing; read-out: mean terminal half-life (converted)
parameter-measured: half-life

> print(dat)
                                   compound  reading
1  Cc1ncc(OC[C@@]2(c3cccc(F)c3)C[C@H]2C(=O)Nc2ccc(F)cn2)c(C)n1 [Compound A]    ~55 h

* * *

Experiment: Single dose study (001 Study) Part A: plasma PK of compound A
Type: in vivo
Details: human, plasma, po, 5 mg, single oral 5 mg, healthy subjects (Part A); read-out: Cmax Mean(SD)
parameter-measured: Cmax

> print(dat)
                                   compound  parameter.measured     reading
1  Cc1ncc(OC[C@@]2(c3cccc(F)c3)C[C@H]2C(=O)Nc2ccc(F)cn2)c(C)n1 [Compound A]                Cmax  22.7 ng/mL

* * *

Test: Single dose study (001 Study) Part A: plasma PK of compound A
Assay type: in vivo
Conditions: human, plasma, po, 200 mg, single oral 200 mg, healthy subjects (Part A); read-out: AUC(0-t) Mean(SD)
Procedure: This was a randomized, double-blind, placebo- and active-controlled, sequential, single-dose study. The study consisted of two parts, Part A (healthy subjects) and Part B (otherwise healthy subjects with primary insomnia). […] Plasma concentrations of compound A were measured using a validated liquid chromatography-mass spectrometry/mass spectrometry (LC-MS/MS) assay.
parameter-measured: AUC(0-t) (ng·h/mL)

> print(dat)
                                   molecule  unit.abbrev  reading
1  Cc1ncc(OC[C@@]2(c3cccc(F)c3)C[C@H]2C(=O)Nc2ccc(F)cn2)c(C)n1 [Compound A]      ng·h/mL     9840

* * *

Test: Multiple ascending dose study (002 Study): plasma PK
Format: in vivo, human
Details: human, plasma, oral, 50 mg, Day 1, 50 mg once daily in the evening; read-out: tmax Median
parameter-measured: Tmax

> print(dat)
                                chem.smiles  parameter.measured  reading
1  Cc1ncc(OC[C@@]2(c3cccc(F)c3)C[C@H]2C(=O)Nc2ccc(F)cn2)c(C)n1                Tmax      2 h

* * *

Experiment: Multiple ascending dose study (002 Study): plasma PK
Assay type: in vivo, human
Settings: human, plasma, oral, 50 mg, Day 14, 50 mg once daily for 14 days; read-out: tmax Median
Description: A total of 48 healthy adult subjects (18 to 55 years) were to be enrolled into 1 of 6 cohorts sequentially in a gradual dose escalation manner, and randomized to receive either compound A or compound A-matched placebo in the evening 30 minutes before habitual bedtime, and after 3 hours fasting, for 14 days. Each cohort was to comprise 6 compound A-treated subjects and 2 placebo-treated subjects. […]
parameter-measured: Tmax

> print(dat)
                                   molecule  reading
1  Cc1ncc(OC[C@@]2(c3cccc(F)c3)C[C@H]2C(=O)Nc2ccc(F)cn2)c(C)n1 [Compound A]   2.02 h

* * *

Assay: Multiple ascending dose study (002 Study): plasma PK
Type: in vivo, human
Settings: human, plasma, oral, 2.5 mg, Day 1, 2.5 mg once daily in the evening; read-out: Cmax Mean(SD)
parameter-measured: Cmax

> print(dat)
                                chem.smiles  parameter.measured     reading
1  Cc1ncc(OC[C@@]2(c3cccc(F)c3)C[C@H]2C(=O)Nc2ccc(F)cn2)c(C)n1                Cmax  10.1 ng/mL
